# PROTOCOL_DETAILS: Selectivity index, ratio of IC50 for human MCF10A cells to IC50 for human MDA-MB-468 cells expressing CYP1A1 and CYP1B1
# Assay type: toxicity
# MEASUREMENT_CONTEXT: read-out: Ratio IC50
selectivity ratio reference
Please reply with the value in numeric form only.

Worked set:
{"COMPOUND": "CCCOc1ccc(-c2cc(-c3ccc(OC)c(OC)c3)[nH]c(=O)c2)cc1", "VALUE": 389}
{"COMPOUND": "COc1ccc(-c2cc(-c3ccc(OC)c(OC)c3)cc(=O)[nH]2)c(OC)c1", "VALUE": 100}

Input: Would you mind telling me what selectivity ratio value was observed for `CCCOc1ccc(-c2cc(-c3ccc(OC)cc3OC)[nH]c(=O)c2)cc1` ?
Output: 125

Input: Form field: reported selectivity ratio of `COc1ccc(-c2cc(-c3ccc(O)c(O)c3)cc(=O)[nH]2)c(OC)c1`
Output: 3

Input: Reported selectivity ratio for `COc1cc(OC)cc(-c2cc(-c3ccc4c(c3)OCO4)cc(=O)[nH]2)c1` : what is it?
Output: 2

Input: Data request, read-out selectivity ratio, for COc1ccc(/C=C\c2cc(OC)c(OC)c(OC)c2)cc1O [COMBRETASTATIN A4]
Output: 0.53

----------
# SUBJECT_OF_TEST: CYP1B1 (Homo sapiens)
# Sequence (Q16678 whole entry): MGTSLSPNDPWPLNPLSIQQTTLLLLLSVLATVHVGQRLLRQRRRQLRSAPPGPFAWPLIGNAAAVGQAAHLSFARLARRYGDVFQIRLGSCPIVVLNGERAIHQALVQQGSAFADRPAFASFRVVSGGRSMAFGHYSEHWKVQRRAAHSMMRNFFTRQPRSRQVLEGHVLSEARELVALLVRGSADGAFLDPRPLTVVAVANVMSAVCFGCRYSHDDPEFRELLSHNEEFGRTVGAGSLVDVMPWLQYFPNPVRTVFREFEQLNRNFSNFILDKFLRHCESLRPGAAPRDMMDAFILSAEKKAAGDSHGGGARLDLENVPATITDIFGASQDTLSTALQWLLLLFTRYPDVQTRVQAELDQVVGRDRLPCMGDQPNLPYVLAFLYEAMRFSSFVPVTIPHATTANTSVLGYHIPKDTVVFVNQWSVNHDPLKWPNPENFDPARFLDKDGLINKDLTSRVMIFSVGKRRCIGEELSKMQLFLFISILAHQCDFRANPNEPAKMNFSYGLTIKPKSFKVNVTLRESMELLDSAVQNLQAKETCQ
# PROTOCOL_DETAILS: Drug metabolism in supersomes expressing human CYP1B1 and coexpressing NADPH reductase assessed as CYP1B1-mediated drug metabolism by measuring compound half life at 10 uM in the presence of NADPH measured at 5 mins interval for 25 mins by reverse phase HPLC analysis
# Format: ADME
ENDPOINT_LABEL: half-life at 10 µM
Dear colleague, please send the value followed by its unit.

Input: Which half-life at 10 µM is listed for `COc1ccc(-c2cc(-c3ccc4c(c3)OCO4)cc(=O)[nH]2)c(OC)c1` ?
Output: 30.1 min

----------
Reported values of IC50 for individual entries
# Test system: MCF7
# PROTOCOL_DETAILS: Antiproliferative activity against […]-induced ER positive human MCF7 cells expressing CYP1A1 assessed as reduction in cell viability after 96 hrs by MTT assay
# Type: functional, cell-based
# MEASUREMENT_CONTEXT: MCF7, 96 h
Answer in nM, number only, no unit symbol.

{"MOL": "COc1ccc(-c2cc(-c3ccc(O)c(O)c3)cc(=O)[nH]2)c(OC)c1", "IC50 / nM": 700}
{"MOL": "COc1ccc(-c2cc(-c3ccc4c(c3)OCO4)[nH]c(=O)c2)c(OC)c1", "IC50 / nM": 1000}

Then there is this molecule:
Input: Give the measured IC50 of `O=c1cc(-c2ccc3c(c2)OCO3)cc(-c2ccccc2)[nH]1` .
Output: 800

----------
Listed here: items and their measured selectivity ratio.
# PROTOCOL_DETAILS: Selectivity index, ratio of IC50 for human MCF10A cells to IC50 for human MDA-MB-468 cells expressing CYP1A1 and CYP1B1
# Type: toxicity
# MEASUREMENT_CONTEXT: read-out: Ratio IC50

Solved entries:
{"MOL": "COc1ccc(-c2cc(-c3ccc4c(c3)OCO4)cc(=O)[nH]2)c(OC)c1OC", "selectivity ratio": "> 12.5"}
{"MOL": "COc1ccc(-c2cc(-c3ccc4c(c3)OCO4)cc(=O)[nH]2)cc1", "selectivity ratio": "> 100"}
{"MOL": "O=c1cc(-c2ccc3c(c2)OCO3)cc(-c2ccc(Cl)cc2Cl)[nH]1", "selectivity ratio": "> 1.7"}

Please examine the following record next.
Input: Reported selectivity ratio for `COc1cc(-c2cc(-c3ccc4c(c3)OCO4)cc(=O)[nH]2)cc(OC)c1OC` : what is it?
Output: > 2
